MDCK-MDR1: % Recov B-A (%) values for the compounds below.
Tested on: MDR1-MDCK cell monolayers
run parameters: dog, MDCK-MDR1, 120 min, 5 μM, pH 7.4
Write the answer as a number in %, unit excluded.

Recall and state the measured MDCK-MDR1: % Recov B-A (%) for CN(c1cnc(-c2cc3oc(C(=O)N4CCC4)cc3cc2O)cn1)[C@@H]1CC2CC[C@H](N2)[C@@H]1F (single isomer, unassigned) [Compound 20E1] .
101

Others:
Recall and state the measured MDCK-MDR1: % Recov B-A (%) for CN(c1cnc(-c2cc(F)c(-c3cn[nH]c3)cc2O)cn1)[C@H]1C[C@@H]2CCC(N2)[C@H]1F (single isomer, unassigned) [Compound 40E2] .
72

Recall and state the measured MDCK-MDR1: % Recov B-A (%) for Cn1cc(-c2cc(O)c(-c3cnc(N(C4CC4)[C@@H]4C[C@H]5CC[C@H](N5)[C@@H]4F)cn3)cc2F)cn1 [Compound 35E1] .
62

Recall and state the measured MDCK-MDR1: % Recov B-A (%) for COc1cc(-c2ccc(-c3cnc(N(C4CC4)[C@@H]4CC5CC[C@H](N5)[C@@H]4F)cn3)c(O)c2)cc(F)n1 (single isomer, unassigned) [Compound 52E1] .
76

Recall and state the measured MDCK-MDR1: % Recov B-A (%) for COc1cc(-c2ccc(-c3cnc(N(C)[C@@H]4CC5CC[C@H](N5)[C@@H]4F)cn3)c(O)c2)cc(F)n1 (single isomer, unassigned) [Compound 44E1] .
41

Recall and state the measured MDCK-MDR1: % Recov B-A (%) for Oc1cc(-n2ccnn2)c(F)cc1-c1cnc(N(C2CC2)[C@H]2C[C@@H]3CCC(N3)[C@H]2F)cn1 (single isomer, unassigned) [Compound 11E2] .
72

Recall and state the measured MDCK-MDR1: % Recov B-A (%) for COc1cc(-c2ccc(-c3cnc(N(C)[C@H]4C[C@@H]5COCC(N5)[C@H]4F)cn3)c(O)c2)cnn1 (single isomer, unassigned) [Compound 74E2] .
104

Recall and state the measured MDCK-MDR1: % Recov B-A (%) for CN(c1cnc(-c2ccc(C3=CCOC3)cc2O)cn1)[C@@H]1CC2CC[C@H](N2)[C@@H]1F (single isomer, unassigned) [Compound 84E1] .
59

---

System: MDR1-MDCK cell monolayers
run parameters: dog, MDCK-MDR1, 120 min, 5 μM, pH 7.4
MDCK-MDR1: % Recov A-B (%) values for the molecules below.
Write the answer as a number in %, unit excluded.

Recall and state the measured MDCK-MDR1: % Recov A-B (%) for COc1cc(-c2ccc(-c3cnc(N(C4CC4)[C@@H]4CC5CC[C@H](N5)[C@@H]4F)cn3)c(O)c2)ncn1 (single isomer, unassigned) .
17

Others:
Recall and state the measured MDCK-MDR1: % Recov A-B (%) for CN(c1cnc(-c2cc(F)c(-c3cnn(C)c3)cc2O)cn1)[C@H]1C[C@@H]2CCC(N2)[C@H]1F (single isomer, unassigned) [Compound 17E2] .
24

Recall and state the measured MDCK-MDR1: % Recov A-B (%) for COc1cc(-c2ccc(-c3cnc(N(C4CC4)[C@H]4C[C@@H]5CCC(N5)[C@H]4F)cn3)c(O)c2)ccn1 (single isomer, unassigned) .
11

Recall and state the measured MDCK-MDR1: % Recov A-B (%) for COc1cc(-c2cc(O)c(-c3cnc(N(C)[C@@H]4CC5CC[C@H](N5)[C@@H]4F)cn3)cc2F)ccn1 (single isomer, unassigned) .
13

Recall and state the measured MDCK-MDR1: % Recov A-B (%) for CN(c1cnc(-c2cc(F)c(-c3cnn(C)c3)cc2O)cn1)[C@@H]1CC2CC(F)(F)[C@@H](C1)N2 (single isomer, unassigned) .
42

Data credit: patent US11964971B2
